# measured target: T1, human beta CGRP (SEQ ID NO: 81) (human, not fully specified)
# T1 construct: also called human βCGRP; hβCGRP
# T1 peptide: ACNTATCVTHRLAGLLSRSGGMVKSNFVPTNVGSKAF
# test name: SPR, 37 C, mutein captured, CGRP analyte
# Description: The Biotin CAPture Kit (GE Healthcare) was used to immobilize biotinylated lipocalin muteins to a chip surface. Muteins were biotinylated using standard NHS chemistry. […] The data were double-referenced by subtraction of the corresponding signals measured for the control channel (loaded with Biotin CAPture reagent only) and by subtraction of buffer injections from the binding responses. […]
endpoint label: pKd
Lab note: report pKd as minus log10 of the concentration in molar units, number only.

>  <binder>
lipocalin mutein SEQ ID NO: 17 (designed binder, biotinylated by NHS chemistry for capture in SPR) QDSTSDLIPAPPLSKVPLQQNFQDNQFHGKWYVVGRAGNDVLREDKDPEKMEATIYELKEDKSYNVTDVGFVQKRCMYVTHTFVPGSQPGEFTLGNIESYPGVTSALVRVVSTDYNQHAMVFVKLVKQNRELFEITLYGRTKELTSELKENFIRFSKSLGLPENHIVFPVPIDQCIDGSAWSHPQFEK

>  <pKd>
12.00

$$$$

Which pKd value belongs to lipocalin mutein SEQ ID NO: 13 (designed binder, biotinylated by NHS chemistry for capture in SPR) QDSTSDLIPAPPLSKVPLQQNFQDNQFHGKWYVVGRAGNEELREDKDPQKMEATIYELKEDKSYNVTDVGFSEKKCIYVIHTFVPGSQPGEFTLGNIKSYPGVTSALVRVVSTNYNQHAMVFFKVVKQNRELFEITLYGRTKELTSELKENFIRFSKSLGLPENHIVFPVPIDQCIDGSAWSHPQFEK ?
10.51
